# System Under Test: FraR (Salmonella enterica, UniProt Q8ZLC9)
# Sequence (Q8ZLC9 1-239): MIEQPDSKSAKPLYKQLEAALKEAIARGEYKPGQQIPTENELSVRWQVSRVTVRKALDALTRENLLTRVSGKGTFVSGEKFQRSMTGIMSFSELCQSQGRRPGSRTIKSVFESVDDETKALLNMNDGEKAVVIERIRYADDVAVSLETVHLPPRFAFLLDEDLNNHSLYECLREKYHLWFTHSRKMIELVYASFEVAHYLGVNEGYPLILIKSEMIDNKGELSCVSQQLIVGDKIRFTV
Measured Quantity: pKd
Remember the convention: pKd equals -log10 of concentration in molar.

For the compound shown here, O=C(O)C[C@H](NCC(=O)[C@@H](O)[C@H](O)[C@H](O)COP(=O)(O)O)C(=O)O [6-P-F-Asp, 6-phosphofructose-aspartate] , give the reported pKd. 5.42
